Measured On: rat NR1/NR2B receptor (Rattus norvegicus (Rat), UniProt P35439+Q00960)
Sequence (Q00960 27-1482, other chains not shown): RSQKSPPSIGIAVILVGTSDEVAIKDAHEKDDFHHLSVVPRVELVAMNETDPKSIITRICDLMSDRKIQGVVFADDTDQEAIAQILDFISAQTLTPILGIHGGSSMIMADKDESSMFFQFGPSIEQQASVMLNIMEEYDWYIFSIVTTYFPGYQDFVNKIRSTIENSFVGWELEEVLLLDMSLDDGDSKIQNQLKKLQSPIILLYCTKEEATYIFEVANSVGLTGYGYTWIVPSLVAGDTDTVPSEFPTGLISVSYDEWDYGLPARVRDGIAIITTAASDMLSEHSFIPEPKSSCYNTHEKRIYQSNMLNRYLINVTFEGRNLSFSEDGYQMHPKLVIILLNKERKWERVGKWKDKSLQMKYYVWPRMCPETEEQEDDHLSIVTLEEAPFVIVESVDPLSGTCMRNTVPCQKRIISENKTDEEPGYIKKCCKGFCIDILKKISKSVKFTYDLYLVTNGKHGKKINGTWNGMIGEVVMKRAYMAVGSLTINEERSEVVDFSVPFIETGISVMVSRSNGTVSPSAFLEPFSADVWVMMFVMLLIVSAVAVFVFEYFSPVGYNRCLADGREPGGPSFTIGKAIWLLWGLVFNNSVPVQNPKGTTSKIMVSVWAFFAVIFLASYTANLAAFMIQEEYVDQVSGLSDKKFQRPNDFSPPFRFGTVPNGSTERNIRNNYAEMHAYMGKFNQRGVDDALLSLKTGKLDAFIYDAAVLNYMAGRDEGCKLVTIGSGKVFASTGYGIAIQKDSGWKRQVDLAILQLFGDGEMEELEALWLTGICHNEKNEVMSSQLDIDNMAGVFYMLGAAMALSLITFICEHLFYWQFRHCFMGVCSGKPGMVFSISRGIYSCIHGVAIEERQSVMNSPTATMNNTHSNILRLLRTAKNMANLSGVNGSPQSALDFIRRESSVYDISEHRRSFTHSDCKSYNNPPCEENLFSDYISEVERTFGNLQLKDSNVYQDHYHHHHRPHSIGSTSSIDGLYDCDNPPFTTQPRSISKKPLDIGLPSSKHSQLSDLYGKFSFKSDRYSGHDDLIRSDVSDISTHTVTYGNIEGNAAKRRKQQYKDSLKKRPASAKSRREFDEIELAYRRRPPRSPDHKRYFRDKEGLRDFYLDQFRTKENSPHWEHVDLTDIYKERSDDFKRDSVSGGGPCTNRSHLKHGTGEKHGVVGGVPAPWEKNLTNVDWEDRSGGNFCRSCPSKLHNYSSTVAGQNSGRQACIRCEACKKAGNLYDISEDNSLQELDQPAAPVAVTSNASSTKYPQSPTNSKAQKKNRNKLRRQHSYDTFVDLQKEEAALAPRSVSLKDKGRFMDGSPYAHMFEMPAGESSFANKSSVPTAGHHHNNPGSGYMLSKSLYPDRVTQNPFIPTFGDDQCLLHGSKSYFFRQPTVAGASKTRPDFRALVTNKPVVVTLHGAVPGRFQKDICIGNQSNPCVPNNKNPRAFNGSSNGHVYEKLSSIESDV
Experiment Description: NR2B binding assay: inhibition of specific [3H]-Ifenprodil binding to the rat NR1/NR2B receptor
Condition Summary: 10 μM test compound; read-out: NR2B binding assay % INH @ 10 μM
Readout: inhibition at 10 µM (%)

[
  {
    "Smiles Str": "Cc1ncn(Cc2cn(-c3ccc(Cl)cc3)nn2)n1",
    "Result Units": "%",
    "inhibition at 10 µM": 17.9
  }
]

A. Clc1ccc(-n2cc(Cn3nc(C4CC4)nc3C3CC3)nn2)cc1
B. Cc1nncn1Cc1cn(-c2ccc(Cl)cc2)nn1
C. Clc1ccc(-n2cc(Cn3cnc(C4CC4)n3)nn2)cc1
D. CC(C)c1ncnn1Cc1cn(-c2ccc(Cl)cc2)nn1
E. Clc1ccc(-n2cc(Cn3cnc(C4CCC4)n3)nn2)cc1
Query block: Provide the items ranked by increasing inhibition at 10 µM. Note for the reader: the ranking is given by listing the labels in the order requested.
Result block: B, A, E, C, D

A. Cc1nc(C)n(Cc2cn(-c3ccc(Cl)cc3)nn2)n1
B. Cc1nc(C)n(Cc2cn(-c3ccccc3)nn2)n1
Query block: Return label of the item with the larger inhibition at 10 µM. Candidates: A , B . Respond with the label that goes with your answer.
Result block: A
(A: 31.5%, B: 7.4%)

I. CCCc1ncnn1Cc1cn(-c2ccc(Cl)cc2)nn1
II. CC(C)c1ncn(Cc2cn(-c3ccc(Cl)cc3)nn2)n1
Query block: I'm curious, which of these has a smaller inhibition at 10 µM number: I or II ? Respond with the label that goes with your answer.
Result block: II
(II: 2%, I: 43%)

I. CCc1ncn(Cc2cn(-c3ccc(Cl)cc3)nn2)n1
II. Cc1nc(CO)nn1Cc1cn(-c2ccccc2)nn1
Query block: I'm curious, which of these has a smaller inhibition at 10 µM number: I or II ? Respond with the label that goes with your answer.
Result block: II
(II: -17.1%, I: 21.6%)

----------
Measured On: rat NR1/NR2B receptor (Rattus norvegicus (Rat), UniProt P35439+Q00960)
Experiment Description: NR2B binding assay: inhibition of specific [3H]-Ifenprodil binding to the rat NR1/NR2B receptor
Condition Summary: 10 μM test compound; read-out: NR2B binding assay % INH @ 10 μM
Readout: inhibition at 10 µM (%)

1. Cc1ncnn1Cc1cn(-c2ccc(Cl)cc2)nn1 [Example 8]
2. CC(C)(C)c1ncnn1Cc1cn(-c2ccc(Cl)cc2)nn1 [Example 19]
Query block: Return label of the item with the larger inhibition at 10 µM. Candidates: 1 , 2 . Respond with the label that goes with your answer.
Result block: 1
(1: 38.7%, 2: 14.5%)

1. Clc1ccc(-n2cc(Cn3ncnc3C3CCCC3)nn2)cc1 [Example 14]
2. CC(C)(C)c1ncn(Cc2cn(-c3ccc(Cl)cc3)nn2)n1 [Example 20]
Query block: I'm curious, which of these has a smaller inhibition at 10 µM number: 1 or 2 ? Respond with the label that goes with your answer.
Result block: 2
(2: 15.3%, 1: 49.6%)

----------
Measured On: rat NR1/NR2B receptor (Rattus norvegicus (Rat), UniProt P35439+Q00960)
Experiment Description: RRNR2BB: inhibition of specific [3H]-Ifenprodil binding to the rat NR1/NR2B receptor
Condition Summary: rat brain membranes, Hill-plot 2-parameter model
pIC50: −log10 of the molar value.
Readout: pIC50

[
  {
    "Compound": "OCCc1nccn1Cc1cn(-c2ccc(S(F)(F)(F)(F)F)cc2)nn1 [Example 118]",
    "Measured On": "rat NR1/NR2B receptor (Rattus norvegicus (Rat), UniProt P35439+Q00960)",
    "pIC50": 6.58
  },
  {
    "Compound": "FCCc1nccn1Cc1cn(-c2cc(F)cc(C(F)F)c2)nn1 [Example 104]",
    "Measured On": "rat NR1/NR2B receptor (Rattus norvegicus (Rat), UniProt P35439+Q00960)",
    "pIC50": 6.73
  }
]
